Recorded pKd for the following binders
# system-under-test: T1, EsCas13d, nuclease-dead (Eubacterium siraeum, UniProt B0MS50, R295A;H300A;R849A;H854A)
# T1 sequence: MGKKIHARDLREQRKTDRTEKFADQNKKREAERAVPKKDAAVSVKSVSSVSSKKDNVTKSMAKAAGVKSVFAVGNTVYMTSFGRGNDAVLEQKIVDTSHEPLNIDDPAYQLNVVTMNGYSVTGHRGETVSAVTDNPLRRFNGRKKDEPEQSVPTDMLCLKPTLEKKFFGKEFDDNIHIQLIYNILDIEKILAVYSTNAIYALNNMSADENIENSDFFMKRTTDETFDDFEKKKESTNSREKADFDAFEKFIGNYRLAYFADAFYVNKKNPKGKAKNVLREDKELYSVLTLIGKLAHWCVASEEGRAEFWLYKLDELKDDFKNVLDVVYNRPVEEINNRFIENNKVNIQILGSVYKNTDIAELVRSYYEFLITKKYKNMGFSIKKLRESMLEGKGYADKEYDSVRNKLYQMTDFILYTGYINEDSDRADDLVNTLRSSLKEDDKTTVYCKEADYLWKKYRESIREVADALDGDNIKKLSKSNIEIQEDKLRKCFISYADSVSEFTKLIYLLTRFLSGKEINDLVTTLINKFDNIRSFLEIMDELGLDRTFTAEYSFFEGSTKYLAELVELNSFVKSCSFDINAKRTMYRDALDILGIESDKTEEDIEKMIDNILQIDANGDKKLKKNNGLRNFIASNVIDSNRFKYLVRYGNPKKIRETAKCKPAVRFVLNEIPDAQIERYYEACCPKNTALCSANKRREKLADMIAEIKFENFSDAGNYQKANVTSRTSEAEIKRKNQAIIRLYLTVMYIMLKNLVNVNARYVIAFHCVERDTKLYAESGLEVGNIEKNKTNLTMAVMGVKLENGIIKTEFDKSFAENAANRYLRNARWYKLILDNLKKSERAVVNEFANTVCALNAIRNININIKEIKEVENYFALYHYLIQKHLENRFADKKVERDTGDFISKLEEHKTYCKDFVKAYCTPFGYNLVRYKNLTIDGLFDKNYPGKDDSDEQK
# protocol-details: crRNA (strand 1, pre-loaded); Mg2+; 40 mM Tris-HCl pH 7.5, 150 mM NaCl, 6 mM MgCl2, 1 mM DTT, 0.1% Tween-20, 0.2 mg/ml BSA; 25 C; 10 min per concentration, then washed
# condition-description: tags: His6-TwinStrep-SUMO cleaved; N-terminal SNAP kept (SNAP-Surface 488); label: 3' end held by stalled T7 RNA polymerase
Just so you know, pKd here is -log10 of the concentration in molar units; reply with that number alone.

binder: target 2 MT 5'PFS GGC 3'PFS UUA (mixed) RNA 1: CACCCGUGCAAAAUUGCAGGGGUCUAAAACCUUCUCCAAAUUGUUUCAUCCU RNA 2: GGGAAUGGAUCCACAUCUACGAAUUCGGCAGGAUGAAACAAUUUGGAGAAGUUAAGAUCGGAAGAGCACACGU
quantity-measured: pKd
reported: 7.82

input: Consider the binder shown here: target 1 U10G,A20U (mixed) RNA 1: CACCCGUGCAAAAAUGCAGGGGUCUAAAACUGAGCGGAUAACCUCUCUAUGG RNA 2: GGGAAUGGAUCCACAUCUACGAAUUCGUACCUUAGAGAGGUGAUCCGCUCACCGAGAUCGGAAGAGCACACGU What is its recorded pKd?
output: 7.22

input: Any idea what its pKd is? The binder is target 2 MT 5'PFS AAU 3'PFS ACC (mixed) RNA 1: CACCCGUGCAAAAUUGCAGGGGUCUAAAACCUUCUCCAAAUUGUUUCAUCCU RNA 2: GGGAAUGGAUCCACAUCUACGAAUUCAAUAGGAUGAAACAAUUUGGAGAAGACCAGAUCGGAAGAGCACACGU
output: 7.98

input: Suppose we examine the binder target 1 insU 3' of 5 (mixed) RNA 1: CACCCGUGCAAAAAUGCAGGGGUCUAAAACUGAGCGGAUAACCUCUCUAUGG RNA 2: GGGAAUGGAUCCACAUCUACGAAUUCGUACCAUAGAGAGGUUAUCCGUCUCACCGAGAUCGGAAGAGCACACGU ; what pKd value has been reported?
output: 7.74
